# tgt: the molecule itself
# method: cross-linking; apo-proteins: 0.02% glutaric aldehyde, 16 h, 20 °C, protein 1 mg/mL, 20 mM Tricine-KOH pH 7.4, 50 mM KCl, 1 mM DTT, 1 mM EDTA; SDS-PAGE, Coomassie, densitometry; self-association
measurementType: Dimer 50 kDa, % (%)
Give just the number in %; leave the unit off.

So, human recoverin mutant F83A (natural protein, UniProt P35243 1-200, looked up, myristoylated (fraction of non-myristoylated forms did not exceed 16%), recoverin, human, UniProt P35243, N-terminal 'black' cluster mutant; Parent construct as m1; source: E. coli, expressed and purified similarly to the rWT protein (phenyl-Sepharose, Toyopearl SuperQ-650M)) MGNSKSGALSKEILEELQLNTKFSEEELCSWYQSFLKDCPTGRITQQQFQSIYAKFFPDTDPKAYAQHVFRSFDSNLDGTLDAKEYVIALHMTTAGKTNQKLEWAFSLYDVDGNGTISKNEVLEIVMAIFKMITPEDVKLLPDDENTPEKRAEKIWKYFGKNDDDKLTEKEFIEGTLANKEILRLIQFEPQKVKEKMKNA ? Its Dimer 50 kDa, % was 35.6

So, human recoverin mutant F70A (natural protein, UniProt P35243 1-200, looked up, myristoylated (fraction of non-myristoylated forms did not exceed 16%), recoverin, human, UniProt P35243, N-terminal 'gray' cluster mutant; Parent construct as m1; source: E. coli, expressed and purified similarly to the rWT protein (phenyl-Sepharose, Toyopearl SuperQ-650M)) MGNSKSGALSKEILEELQLNTKFSEEELCSWYQSFLKDCPTGRITQQQFQSIYAKFFPDTDPKAYAQHVARSFDSNLDGTLDFKEYVIALHMTTAGKTNQKLEWAFSLYDVDGNGTISKNEVLEIVMAIFKMITPEDVKLLPDDENTPEKRAEKIWKYFGKNDDDKLTEKEFIEGTLANKEILRLIQFEPQKVKEKMKNA ? Its Dimer 50 kDa, % was 29.3

So, human recoverin mutant V122A (natural protein, UniProt P35243 1-200, looked up, myristoylated (fraction of non-myristoylated forms did not exceed 16%), recoverin, human, UniProt P35243, C-terminal 'gray' cluster mutant; Parent construct as m1; source: E. coli, expressed and purified similarly to the rWT protein (phenyl-Sepharose, Toyopearl SuperQ-650M)) MGNSKSGALSKEILEELQLNTKFSEEELCSWYQSFLKDCPTGRITQQQFQSIYAKFFPDTDPKAYAQHVFRSFDSNLDGTLDFKEYVIALHMTTAGKTNQKLEWAFSLYDVDGNGTISKNEALEIVMAIFKMITPEDVKLLPDDENTPEKRAEKIWKYFGKNDDDKLTEKEFIEGTLANKEILRLIQFEPQKVKEKMKNA ? Its Dimer 50 kDa, % was 27
